Below, each entry is listed alongside its reported IC50.
- system: human C5aR(CD88) (Homo sapiens)
- Construct: expressed in transfected cells; host or cells: rat basophilic leukemia cells (RBL)
- Sequence (P21730 whole entry): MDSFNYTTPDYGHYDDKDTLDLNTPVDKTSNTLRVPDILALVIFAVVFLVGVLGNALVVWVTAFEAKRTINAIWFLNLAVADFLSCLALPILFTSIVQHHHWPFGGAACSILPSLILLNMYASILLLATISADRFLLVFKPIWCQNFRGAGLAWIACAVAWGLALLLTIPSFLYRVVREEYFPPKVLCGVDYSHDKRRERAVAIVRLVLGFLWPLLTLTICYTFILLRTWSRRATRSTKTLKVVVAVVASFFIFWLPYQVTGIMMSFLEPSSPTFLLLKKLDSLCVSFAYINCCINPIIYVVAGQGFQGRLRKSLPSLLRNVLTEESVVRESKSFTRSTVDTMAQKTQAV
- test-details: Determination of the IC50 value in an enzyme release assay (functional assay, antagonistic activity)
- Format: cell-based
- protocol-conditions: antagonistic activity; IC50 group in enzyme release assay, RBL cells expressing human C5aR(CD88); read-out: activity (group)
Starred links: 1 amine or outer side, 2 acyl side, 3 side chain; linkers in the order of their positions; H or OH if unused. Positions of bridges follow the written chain, without caps; N, C: chain ends. Non-standard residues stand in square brackets, D forms with d. Residues, ends and D or L forms follow the SMILES beside them. *: point of attachment. Dihydroorotyl(S) = O=C1C[C@@H](C(=O)*)NC(=O)N1; Phe(4-F) = N[C@@H](Cc1ccc(F)cc1)C(=O)O; X5 = CCN(CC)CCC[C@H](N[*:1])C(=O)[*:2]; Bta = N[C@@H](Cc1csc2ccccc12)C(=O)O; Morpholinoacetyl = O=C(CN1CCOCC1)*; Hyp = O=C(O)[C@@H]1C[C@@H](O)CN1; d(hLeu) = CC(C)CC[C@@H](N)C(=O)O; Cit = NC(=O)NCCC[C@H](N)C(=O)O; dCha = N[C@H](CC1CCCCC1)C(=O)O; Nle = CCCC[C@H](N)C(=O)O; Orn = NCCC[C@H](N)C(=O)O; Aze = O=C(O)[C@@H]1CCN1; X13 = c1ccc2c(c1)nnn2C*; tBu = CC(C)(C)*

In the examples that follow, each entry is paired with its recorded IC50.
1) CCN(CC)CCC[C@H](NC(=O)[C@H](Cc1ccccc1)NC(C)=O)C(=O)N1CCC[C@H]1C(=O)N[C@H](CC1CCCCC1)C(=O)N[C@@H](Cc1c[nH]c2ccccc12)C(=O)N[C@@H](Cc1ccccc1)C(N)=O [Compound 143, Ac-Phe-Orn(Et2)-Pro-cha-Trp-Phe-NH2] (Ac-F[X5]P[dCha]WF-NH2) | 0.05 to 0.2 µM
2) CC(=O)N1C[C@H](O)C[C@H]1C(=O)N[C@@H](Cc1ccccc1)C(=O)N[C@@H](CCCN)C(=O)N1CC[C@H]1C(=O)N[C@H](CC1CCCCC1)C(=O)N[C@@H](Cc1csc2ccccc12)C(=O)N[C@@H](Cc1ccccc1)C(N)=O [Compound 159, Ac-Hyp-Phe-Orn-Aze-cha-Bta-Phe-NH2] (Ac-[Hyp]F[Orn][Aze][dCha][Bta]F-NH2) | 0.02 to 0.05 µM
3) CC(=O)N[C@@H](Cc1ccccc1)C(=O)N[C@@H](CSCn1nnc2ccccc21)C(=O)N1CCC[C@H]1C(=O)N[C@H](CC1CCCCC1)C(=O)N[C@@H](Cc1csc2ccccc12)C(=O)N[C@@H](Cc1ccccc1)C(N)=O [Compound 119, Ac-Phe-Eec-Pro-cha-Bta-Phe-NH2] (Ac-FC(X13)P[dCha][Bta]F-NH2) | 0.05 to 0.2 µM
4) CC(=O)N[C@@H](Cc1ccccc1)C(=O)N[C@@H](CCCNC(N)=O)C(=O)N1C[C@H](O)C[C@H]1C(=O)N[C@H](CCC(C)C)C(=O)N[C@@H](Cc1csc2ccccc12)C(=O)N[C@@H](Cc1ccccc1)C(N)=O [Compound 209, Ac-Phe-Cit-Hyp-hle-Bta-Phe-NH2] (Ac-F[Cit][Hyp][d(hLeu)][Bta]F-NH2) | 0.05 to 0.2 µM

Dear colleague, I am looking for the recorded IC50 of the following compound: CCCC[C@@H]1NC(=O)[C@H](Cc2ccc(F)cc2)NC(=O)[C@@H](CCC(C)C)NC(=O)[C@@H]2C[C@@H](O)CN2C(=O)[C@@H](NC(=O)[C@H](Cc2ccccc2)NC(=O)[C@@H]2CC(=O)NC(=O)N2)CCCNC1=O [Compound 347, Hoo-Phe-[Orn-Hyp-hle-Pff-Nle]] ({Dihydroorotyl(S)}-F[Orn][Hyp][d(hLeu)][Phe(4-F)][Nle]; lactam 2-C)
0.05 to 0.2 µM

Dear colleague, I am looking for the recorded IC50 of the following compound: CC(=O)NCC(=O)N[C@@H](Cc1ccccc1)C(=O)N[C@@H](CCCN)C(=O)N1CC[C@H]1C(=O)N[C@H](CC1CCCCC1)C(=O)N[C@@H](Cc1csc2ccccc12)C(=O)N[C@@H](Cc1ccccc1)C(N)=O [Compound 136, Ac-Gly-Phe-Orn-Aze-cha-Bta-Phe-NH2] (Ac-GF[Orn][Aze][dCha][Bta]F-NH2)
0.02 to 0.05 µM

Dear colleague, I am looking for the recorded IC50 of the following compound: CCCC[C@@H]1NC(=O)[C@H](Cc2c[nH]c3ccccc23)NC(=O)[C@@H](CC2CCCCC2)NC(=O)[C@H](CO)NC(=O)[C@@H](NC(=O)[C@@H](N)Cc2ccccc2)CCCNC1=O [Compound 382, H-Phe-[Orn-Ser-cha-Trp-Nle]] (H-F[Orn]S[dCha]W[Nle]; lactam 2-C)
0.02 to 0.05 µM

Dear colleague, I am looking for the recorded IC50 of the following compound: CCCC[C@@H]1NC(=O)[C@H](Cc2ccc(F)cc2)NC(=O)[C@@H](CSC(C)(C)C)NC(=O)[C@@H]2C[C@@H](O)CN2C(=O)[C@@H](NC(=O)[C@@H](N)Cc2ccccc2)CCCNC1=O [Compound 358, H-Phe-[Orn-Hyp-ctb-Pff-Nle]] (H-F[Orn][Hyp][dC](tBu)[Phe(4-F)][Nle]; lactam 2-C)
0.05 to 0.2 µM

Dear colleague, I am looking for the recorded IC50 of the following compound: O=C(CN1CCOCC1)N[C@@H](Cc1ccccc1)C(=O)N[C@H]1CCCNC(=O)[C@H](Cc2ccccc2)NC(=O)[C@H](Cc2c[nH]c3ccccc23)NC(=O)[C@@H](CC2CCCCC2)NC(=O)[C@@H]2C[C@@H](O)CN2C1=O [Compound 335, Fha-Phe-[Orn-Hyp-cha-Trp-Phe]] (Morpholinoacetyl-F[Orn][Hyp][dCha]WF; lactam 2-C)
0.05 to 0.2 µM
